Test system: HL-60(TB) leukemia
Experiment: NCI-60 one-dose screen, 48 h
Conditions: 10 µM unless noted
About 83,000 compounds went through this panel and 20% of them were active in at least one assay; those are over-represented in the sample as a whole. Activity calls are given as the source filed them. The calls were made as follows: active = growth percent below 10; inactive = the rest.
Outcome codes: 1 for active, 0 for inactive

# compound, class
records = [
    ("COc1cc2nc(Nc3cccc(F)c3)nc(Nc3cc(C)[nH]n3)c2cc1OC", 1),
    ("Cc1ccc(OCCn2ccc(=O)n(CCOc3ccc(Cl)cc3C(=O)c3cc(C)cc(C)c3)c2=O)cc1", 0),
    ("NCCCNc1nc2ccccc2c2c(=O)c3cc(F)ccc3sc12", 1),
    ("O=C(/C=C/c1ccccc1)c1cccc2ccccc12", 0),
    ("O=C(NCCN1CCCCC1)n1cc(-c2ccncc2)c(-c2ccc(Cl)c(O)c2)n1", 0),
    ("COC1=CC(c2ccc[nH]2)=N/C1=C\\c1[nH]c(C)c(C)c1CCC(=O)OCc1ccccc1", 1),
    ("COc1cc(Nc2ncccc2C(=O)Nc2nc3ccc(F)cc3s2)cc(OC)c1OC", 0),
    ("CNC(=O)NN", 0),
    ("COC(=O)c1c2c(c(C)[n+]([O-])c1C)C(=O)C(NCc1cccc(OC)c1)=CC2=O", 1),
    ("COc1cccc(-c2nc(SCC(=O)Nc3ccc(C(=O)/C=C/c4ccc(OC)c(OC)c4)cc3)[nH]c(=O)c2C#N)c1", 0),
    ("CC(=O)c1cc(C(=O)c2ccc3c(c2)Sc2ccccc2N3)c2cc(C)ccn12", 1),
    ("O=C(c1ccc(/C=C/c2n[nH]c3ccccc23)cc1)N1CCNCC1", 0),
    ("COc1cccc(-c2cn3nc(-c4cn(C)c5ccccc45)sc3n2)c1", 0),
    ("COc1cc2nc(-c3ccc(C(F)(F)F)cc3)cc(OCCCN3CCOCC3)c2cc1OC", 0),
    ("CCN(CC)CCCCCCCNc1c2ccc(Cl)cc2nc2ccc(OC)cc12", 1),
    ("CCN(CC)Cc1cc(Nc2c3ccc(Cl)cc3nc3c(C)cccc23)ccc1O", 1),
    ("Cc1cccc(NC(=O)Cn2cc(CN3CCN(c4ccnc5cc(Cl)ccc45)CC3)nn2)c1", 0),
    ("CCN(CC)CCCN1C(=O)c2c(c(C)c3c(oc4ccc(O)cc43)c2C)C1=O", 1),
    ("N/C(=N\\C(N)=N\\c1nc2ccccc2s1)c1ccnc(Cl)c1", 1),
    ("COc1cc2c(c(OC)c1)C1c3ccccc3NC(=O)N1CC2 (configuration not stated)", 1),
    ("Cc1n(Cc2ccc3ccccc3c2)cc[n+]1Cc1ccc2ccccc2c1", 1),
    ("CC1=C(C(=O)OCC2CCN(C(=O)OC(C)(C)C)CC2)[C@H](c2cccc(Br)c2)C2=C(CC(C)(C)CC2=O)N1", 1),
    ("CCN1C(=O)N(CC)C2Nn3c(s/c(=C\\c4ccccc4F)c3=O)=NC21 (configuration not stated)", 1),
    ("O/N=C/c1cccs1", 0),
    ("N=C(N)c1ccc(-c2ccc(-c3ccc(F)cc3)s2)nc1", 1),
    ("O=S(=O)(Nc1cccc(Cl)c1)c1ccc(-c2cnc(C3CC3)o2)cc1", 1),
    ("CCCN(CCC)c1ccc(/C=C/c2ccc3cc(OCC)ccc3n2)cc1", 0),
    ("CNc1ccc(Nc2cccc(C)c2)c2c1C(=O)c1ccccc1C2=O", 0),
    ("C/C=C(\\C)C(=O)N[C@H]1[C@@H](OC(C)=O)C[C@]2(C)C3CC[C@@]4(C)C(CC[C@@H]4C(C)N(C)C)C3CCC2[C@H]1O (some centres not stated)", 0),
    ("COc1cccc2c1O/C(=C\\c1ccc([N+](=O)[O-])s1)C2=O", 0),
    ("COCCN1CCN(Cc2ccc(-c3n[nH]c4c3C(=O)c3c(NC(=O)NN5CCOCC5)cccc3-4)cc2)CC1", 1),
    ("CCC(c1ccc(O)cc1)C(CC)c1ccc(O)c(F)c1 (configuration not stated)", 0),
    ("N#CCCOc1ccccc1", 0),
    ("Cc1c(C(=O)OCCO)cc(-c2ccc(Cl)cc2)n1-c1ccc(Cl)cc1Cl", 0),
    ("CCOC(=O)CCCCCCCCC(=O)OCC", 0),
    ("O=C(Nc1ccc(-n2ccc3c(NC(=O)c4ccccc4)ncnc32)cc1)Nc1ccc(Cl)c(Cl)c1", 0),
    ("Cc1ccc(OCCCCCCNCCO)c(C)c1", 1),
    ("O=C(O)c1cccc2c1C(=O)N(c1ccc3c(c1)Cc1ccccc1-3)C2=O", 0),
    ("CC(C)c1cc(C(C)C)c(S(=O)(=O)Oc2ccc(NC(=O)c3ccc(Cl)cc3)cc2)c(C(C)C)c1", 0),
    ("CCOC(=O)c1ccc2c(c1)c1c(C)c3cnccc3c(C)c1n2C", 1),
    ("COc1cc(/C=C/C(=O)c2cccnc2Nc2ccc(F)cc2)cc(OC)c1OC", 1),
    ("CCOc1ccc(NC(=O)Nc2cc(C(C)C)ccc2C)cc1", 0),
]
